Entries and their ECHCG phytotoxicity rating (0-100)
Tested on: barnyardgrass (Echinochloa crusgalli, ECHCG)
Assay: Post-emerge greenhouse herbicide test, phytotoxicity rating
Type: in vivo
Settings: 1000 g al/ha, 14 days after application
Description: A standard greenhouse herbicide activity screening system was used to evaluate the herbicidal efficacy and crop safety of these test compounds. […] At 14 days after application of the test materials, phytotoxicity ratings were recorded. […]

Nc1ccc(Oc2cc(-n3c(=O)cc4n(c3=O)CCC4)c(F)cc2Cl)cc1 :: 0
O=c1cc2n(c(=O)n1-c1cc(Oc3ccc([N+](=O)[O-])cc3)c(Cl)cc1F)CCC2 :: 0
O=c1cc2n(c(=O)n1-c1cc(Oc3ncccc3[N+](=O)[O-])c(Cl)cc1F)CCC2 :: 0

Request: ECHCG phytotoxicity rating (0-100) for O=c1cc2n(c(=O)n1-c1cc(Oc3ccccc3[N+](=O)[O-])c(Cl)cc1F)CCC2 ?
Result: 30

---

system: upland rice (Oryza sp., var.Tebonnet, RICE); experiment: Post-emerge greenhouse test, crop damage rating; assay type: in vivo; conditions: rate 63 g ai/ha, 14 days after application, scale 0-100
Entries and their crop damage rating RICE
Please give only the number in your answer, with no unit.

As a guide, the following entries are already answered.
Nc1cccnc1Oc1cc(-n2c(=O)n3n(c2=S)CCCC3)c(F)cc1Cl :: 0
CC(C)S(=O)(=O)c1cccnc1Oc1cc(-n2c(=O)n3n(c2=S)CCCC3)c(F)cc1Cl :: 0
CCOC(=O)C(C)Oc1ccc(Oc2cc(-n3c(=O)n4n(c3=O)CCCC4)c(F)cc2Cl)c([N+](=O)[O-])c1 (stereo not shown) :: 0
CCOC(=O)C(C)Oc1cc([N+](=O)[O-])c(Oc2cc(-n3c(=O)n4n(c3=S)CCCC4)c(F)cc2Cl)cc1Cl (stereo not shown) :: 20
N#Cc1ccc(Oc2cc(-n3c(=O)n4n(c3=S)CCCC4)c(F)cc2Cl)nc1 :: 5
O=c1n(-c2cc(Oc3nc(Cl)ccc3C(F)(F)F)c(Cl)cc2F)c(=S)n2n1CCCC2 :: 0
COc1cc(Oc2cc(-n3c(=O)n4n(c3=S)CCCC4)c(F)cc2Cl)nc(OC)n1 :: 0
O=c1n(-c2cc(Oc3ncc([N+](=O)[O-])s3)c(Cl)cc2F)c(=S)n2n1CCCC2 :: 40
CSc1cccnc1Oc1cc(-n2c(=O)n3n(c2=S)CCCC3)c(F)cc1Cl :: 10
COc1nc(OC)nc(Oc2cc(-n3c(=O)n4n(c3=S)CCCC4)c(F)cc2Cl)n1 :: 0

Request: crop damage rating RICE for O=c1n(-c2cc(Oc3nccc(C(F)(F)F)n3)c(Cl)cc2F)c(=S)n2n1CCCC2 ?
Result: 5

Request: How about Nc1ccc(Oc2cc(-n3c(=O)n4n(c3=S)CCCC4)c(F)cc2Cl)nc1 ?
Result: 20

Request: How about O=c1n(-c2cc(Oc3cccc(F)n3)c(Cl)cc2F)c(=S)n2n1CCCC2 ?
Result: 10

Request: How about N#Cc1cccnc1Oc1cc(-n2c(=O)n3n(c2=S)CCCC3)c(F)cc1Cl ?
Result: 15

Request: How about Nn1c(C(F)(F)F)cc(=O)n(-c2cc(Oc3cccc(C(F)(F)F)c3)c(Cl)cc2F)c1=O ?
Result: 5

Request: How about O=c1n(-c2cc(Oc3nc(F)c(F)cc3F)c(Cl)cc2F)c(=S)n2n1CCCC2 ?
Result: 10

All values here come from patent US6479435B1.
